Recorded fold changes relative to vehicle control, one value per entry.
# assay-system: HeLa cell extract proteins (Homo sapiens)
# Construct: endogenous in cells; host or cells: HeLa cell extract
# Sequence (P81605 20-110): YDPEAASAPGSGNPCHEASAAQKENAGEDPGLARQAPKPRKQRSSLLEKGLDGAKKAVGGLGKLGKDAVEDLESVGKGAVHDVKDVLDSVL
# Assay type: binding
# applied-conditions: protein DCD; HeLa
observed-property: fold changes relative to vehicle control

                                   molecule  numeric_result
0            CCCCCCOc1cccc(Cc2cnc(N)nc2N)c1            1.52
1            CCCCCCOc1ccc(Cc2cnc(N)nc2N)cc1            9.15
2  NCCOCCOCC(=O)Nc1nc2ncc(CNc3ccc(C(=O)NC(CCC(=O)O)C(=O)O)cc3)nc2c(=O)[nH]1 (stereo not drawn)            0.86
3  Nc1nc2c(c(=O)[nH]1)N(C=O)C(CNc1ccc(C(=O)N[C@@H](CCC(=O)O)C(=O)O)cc1)CN2 (stereo partly drawn)            0.78
4  NCCCNc1ccc(C(=O)NC(CCC(=O)O)C(=O)O)cc1 (stereo not drawn)            1.23
5  Nc1nc2cccc(-c3ccccc3)c2n1Cc1ccc(Cl)c(Cl)c1            1.26
